Data credit: patent US12624309B2

assay: Acid-catalyzed hydrolysis of enol ethers in THF/1 M HCl, percent remaining by GC-FID; format: physicochemical; conditions: THF/1M HCl (80:20 v/v), room temperature, 48 h
READOUT_KIND: percent remaining, 48 h (%)
Dear colleague, please return just the value in %, with no unit written.

Worked examples follow.
>>> observed_value("CC(=COCCc1ccccc1)c1ccc(C)cc1 [reference compound]")
95.5
>>> observed_value("CCCCCC(CC)OC=Cc1ccccc1 (centres unmarked) [(2-(octan-3-yloxy)vinyl)benzene, reference compound]")
72.0

Query: Field request: percent remaining, 48 h | item: CCCCCC(CC)OC(=O)C(C)OC=Cc1ccccc1 (racemic) [Compound 41, (±)-octan-3-yl 2-(styryloxy)propanoate]
Result: 99.2

Query: Query C(=Cc1ccccc1)OCCc1ccccc1 [(2-phenethoxyvinyl)benzene, reference compound] next
Result: 90.0

Query: Query CCCCCC(CC)OC(=O)C(C)OC=C(C)c1ccccc1 (racemic) next
Result: 99.5

Query: Query COC(=O)C(C)(C)OC=Cc1ccccc1 [Compound 10, methyl 2-methyl-2-(styryloxy)propanoate] next
Result: 95.3

Query: Query CCC(C)OC(=O)C(C)OC=C(C)c1ccc(OC)cc1 (racemic) next
Result: 94.8

Query: Query CC/C=C\CCOC(=O)C(C)OC=C(C)c1ccc(OC)cc1 (racemic) next
Result: 94.4
